The measured values listed here are drawn from ChEMBL document CHEMBL1125771.

// reported LC99 for each item listed
tested on: P388; experiment: In vitro antitumor activity against cyclophosphamide-resistant P388/CP cells; type: functional, Mus musculus
Provide the reading as a plain figure in µM.

Worked cases, LC99 given:
>  <compound>
CC1CC(C)(C)NC(CCOP(=O)(N(CCCl)CCCl)N2CCOCC2)O1 (stereo not given)

>  <LC99 (µM)>
117

$$$$
>  <compound>
CC1CC(C)(C)NC(CCOP(N)(=O)N(CCCl)CCCl)O1 (stereo not given)

>  <LC99 (µM)>
92

$$$$
>  <compound>
CC1CC(C)(C)NC(CC(OP(=O)(N(CCCl)CCCl)N2CCOCC2)c2ccccc2)O1 (stereo not given)

>  <LC99 (µM)>
22

$$$$

Q: Give the reported LC99 for CC1CC(C)(C)NC(CC(OP(N)(=O)N(CCCl)CCCl)c2ccccc2)O1 (stereo not given) (system: P388).
A: 10

* * *

experiment: Hydrolysis rate constant at pH 7.8 and 25 mM HEPES buffer; format: ADME
outcome_measure: khydr (min⁻¹)
Provide the reading as a plain figure in min⁻¹.

Q: Which khydr reading was recorded for the compound C[C@@H]1CC(C)(C)N[C@H](CCc2ccccc2)O1 ?
A: 0.0082

* * *

test system: P388; experiment: In vitro antitumor activity against cyclophosphamide-resistant P388/CP cells; type: functional, Mus musculus
outcome_measure: LC99 (µM)
Provide the reading as a plain figure in µM.

>  <compound>
CC1CC(C)(C)NC(CC(OP(=O)(N(CCCl)CCCl)N(CCCl)CCCl)c2ccccc2)O1 (stereo not drawn)

>  <LC99 (µM)>
2

$$$$

Please examine the following record next.
Q: Which LC99 reading was recorded for the compound CC1CC(C)(C)NC(CCOP(=O)(N(CCCl)CCCl)N(CCCl)CCCl)O1 (stereo not drawn) ?
A: 10

* * *

tested on: L1210; assay: Ratio of resistance factor LC99 […] to that of LC99 […]; assay type: functional, Mus musculus
// reported RF for each item listed
// response body must contain only the number

Worked cases, RF given:
>  <compound>
CC1CC(C)(C)NC(CC(OP(=O)(N(CCCl)CCCl)N2CCOCC2)c2ccccc2)O1 (stereo unspecified)

>  <RF>
1.4

$$$$
>  <compound>
CC1CC(C)(C)NC(CCOP(N)(=O)N(CCCl)CCCl)O1 (stereo unspecified)

>  <RF>
6.9

$$$$

Q: Give the reported RF for CC1CC(C)(C)NC(CCOP(=O)(N(CCCl)CCCl)N(CCCl)CCCl)O1 (stereo unspecified) (system: L1210).
A: 2.7

Q: Give the reported RF for CC1CC(C)(C)NC(CC(OP(=O)(N(CCCl)CCCl)N(CCCl)CCCl)c2ccccc2)O1 (stereo unspecified) (system: L1210).
A: 1.5

Q: Give the reported RF for CC1CC(C)(C)NC(CC(OP(N)(=O)N(CCCl)CCCl)c2ccccc2)O1 (stereo unspecified) (system: L1210).
A: 1.1

Q: Give the reported RF for CC1CC(C)(C)NC(CCOP(=O)(N(CCCl)CCCl)N2CCOCC2)O1 (stereo unspecified) (system: L1210).
A: 1.8

* * *

tested on: L1210; test: In vivo antitumor activity against intraperitoneal murine wild type L1210 Leukemia cells at 170 umol/kg; assay type: functional, Mus musculus
outcome_measure: T/C (%)
Provide the reading as a plain figure in %.

Q: Which T/C reading was recorded for the molecule CC1CC(C)(C)NC(CC(OP(=O)(N(CCCl)CCCl)N(CCCl)CCCl)c2ccccc2)O1 (centres undefined) ?
A: 125

Q: Which T/C reading was recorded for the molecule CC1CC(C)(C)NC(CC(OP(N)(=O)N(CCCl)CCCl)c2ccccc2)O1 (centres undefined) ?
A: 125

Q: Which T/C reading was recorded for the molecule CC1CC(C)(C)NC(CC(OP(=O)(N(CCCl)CCCl)N2CCOCC2)c2ccccc2)O1 (centres undefined) ?
A: 100

Q: Which T/C reading was recorded for the molecule CC1CC(C)(C)NC(CCOP(N)(=O)N(CCCl)CCCl)O1 (centres undefined) ?
A: 144

* * *

assay: Hydrolysis rate constant at pH 7.4 and 50 mM HEPES buffer; format: ADME
// reported khydr for each item listed
Provide the reading as a plain figure in min⁻¹.

>  <chemical_string>
CC[C@H]1NC(C)(C)C[C@@H](C)O1

>  <outcome_measure>
khydr

>  <measurement_units>
min⁻¹

>  <measured_number>
0.0086

$$$$

Please examine the following record next.
Q: Which khydr reading was recorded for the compound C[C@@H]1CC(C)(C)N[C@H](CCc2ccccc2)O1 ?
A: 0.0095

* * *

assay: Hydrolysis rate constant at pH 7.4 and 12.5 mM HEPES buffer; type: ADME
outcome_measure: khydr (min⁻¹)
Provide the reading as a plain figure in min⁻¹.

>  <chemical_string>
C[C@@H]1CC(C)(C)N[C@H](CCc2ccccc2)O1

>  <outcome_measure>
khydr

>  <measured_number>
0.0086

$$$$

Please examine the following record next.
Q: Which khydr reading was recorded for the compound CC[C@H]1NC(C)(C)C[C@@H](C)O1 ?
A: 0.0088
